Hey, just so you know, these numbers are from ChEMBL document CHEMBL1131114.

Consider the following pIC50 values measured on Sodium-dependent dopamine transporter (Rattus norvegicus).
Sequence (P23977 whole entry): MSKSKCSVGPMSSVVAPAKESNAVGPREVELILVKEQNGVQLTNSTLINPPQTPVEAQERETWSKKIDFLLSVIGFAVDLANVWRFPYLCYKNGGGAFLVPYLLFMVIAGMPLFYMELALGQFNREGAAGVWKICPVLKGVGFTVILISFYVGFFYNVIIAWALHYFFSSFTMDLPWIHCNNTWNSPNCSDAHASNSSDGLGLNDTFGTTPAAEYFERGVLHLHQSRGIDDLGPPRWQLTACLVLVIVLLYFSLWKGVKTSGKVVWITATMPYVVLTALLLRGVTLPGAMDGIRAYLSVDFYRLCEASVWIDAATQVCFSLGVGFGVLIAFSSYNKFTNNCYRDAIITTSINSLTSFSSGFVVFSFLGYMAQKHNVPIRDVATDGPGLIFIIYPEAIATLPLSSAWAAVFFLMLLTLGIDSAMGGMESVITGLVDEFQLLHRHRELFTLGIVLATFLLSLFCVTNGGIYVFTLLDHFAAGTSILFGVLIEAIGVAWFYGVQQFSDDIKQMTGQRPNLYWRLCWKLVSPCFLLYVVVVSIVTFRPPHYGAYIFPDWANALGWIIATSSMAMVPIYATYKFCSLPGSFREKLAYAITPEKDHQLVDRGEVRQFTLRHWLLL
pIC50 here is simply -log10 of the concentration when that concentration is written in mol/L.

{"columns": ["COMPOUND", "pIC50"],
 "data": [
  ["CN1C2CC[C@@H]1C[C@H](c1ccc(F)cc1)[C@H]2COc1ccc2c(c1)OCO2", 6.76],
  ["CN1C2CC[C@@H]1[C@@H](COc1ccc3c(c1)OCO3)[C@@H](c1ccc(F)cc1)C2", 6.53],
  ["Fc1ccc([C@H]2CC3CCC(N3)[C@@H]2COc2ccc3c(c2)OCO3)cc1 (stereo partly drawn)", 6.85],
  ["Fc1ccc([C@@H]2CC3CCC(N3)[C@H]2COc2ccc3c(c2)OCO3)cc1 (stereo in doubt; 4d)", 5.92],
  ["CN1C2CC[C@@H]1[C@H](COc1ccc3c(c1)OCO3)[C@H](c1ccc(F)cc1)C2", 5.82]
]}

Value of measured pIC50 for the entry Fc1ccc([C@@H]2CC3CCC(N3)[C@H]2COc2ccc3c(c2)OCO3)cc1 (stereo in doubt; 4c) : 8.41

Value of measured pIC50 for the entry Fc1ccc([C@H]2CC3CCC(N3)[C@H]2COc2ccc3c(c2)OCO3)cc1 (stereo in doubt; 4a) : 6.08

Value of measured pIC50 for the entry `CN1C2CC[C@@H]1[C@@H](COc1ccc3c(c1)OCO3)[C@H](c1ccc(F)cc1)C2` : 5.98

###

Quick reference for pIC50 among some compounds
Biological target: Norepinephrine transporter (Rattus norvegicus, UniProt Q9WTR4)
Sequence (Q9WTR4 whole entry): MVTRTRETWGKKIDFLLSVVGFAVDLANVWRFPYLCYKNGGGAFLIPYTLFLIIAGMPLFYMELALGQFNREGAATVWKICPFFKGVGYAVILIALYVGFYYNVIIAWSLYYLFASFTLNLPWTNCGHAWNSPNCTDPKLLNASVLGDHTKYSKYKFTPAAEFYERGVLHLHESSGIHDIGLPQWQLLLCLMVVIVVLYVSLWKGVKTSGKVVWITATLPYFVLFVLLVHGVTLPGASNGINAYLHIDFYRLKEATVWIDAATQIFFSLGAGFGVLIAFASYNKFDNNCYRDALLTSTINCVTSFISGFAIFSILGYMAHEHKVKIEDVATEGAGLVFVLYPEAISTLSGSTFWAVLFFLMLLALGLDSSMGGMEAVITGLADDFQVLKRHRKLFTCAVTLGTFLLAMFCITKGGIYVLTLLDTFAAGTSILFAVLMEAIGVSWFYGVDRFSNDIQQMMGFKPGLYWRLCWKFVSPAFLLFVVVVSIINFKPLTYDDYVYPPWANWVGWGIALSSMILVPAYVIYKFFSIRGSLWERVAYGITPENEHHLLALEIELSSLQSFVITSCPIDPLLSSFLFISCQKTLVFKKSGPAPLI
pIC50 here is simply -log10 of the concentration when that concentration is written in mol/L.

Illustrative cases are given below, each with its answer.
{"columns": ["COMPOUND", "pIC50"],
 "data": [
  ["CN1C2CC[C@@H]1[C@H](COc1ccc3c(c1)OCO3)[C@H](c1ccc(F)cc1)C2", 5.54],
  ["CN1C2CC[C@@H]1[C@@H](COc1ccc3c(c1)OCO3)[C@H](c1ccc(F)cc1)C2", 4.56]
]}

Fc1ccc([C@@H]2CC3CCC(N3)[C@H]2COc2ccc3c(c2)OCO3)cc1 (stereo in doubt; 4c) tested on Norepinephrine transporter (Rattus norvegicus, UniProt Q9WTR4) gave pIC50: 7.84

###

Quick reference for pIC50 among some compounds
Target: Sodium-dependent serotonin transporter (Rattus norvegicus, UniProt P31652)
Sequence (P31652 whole entry): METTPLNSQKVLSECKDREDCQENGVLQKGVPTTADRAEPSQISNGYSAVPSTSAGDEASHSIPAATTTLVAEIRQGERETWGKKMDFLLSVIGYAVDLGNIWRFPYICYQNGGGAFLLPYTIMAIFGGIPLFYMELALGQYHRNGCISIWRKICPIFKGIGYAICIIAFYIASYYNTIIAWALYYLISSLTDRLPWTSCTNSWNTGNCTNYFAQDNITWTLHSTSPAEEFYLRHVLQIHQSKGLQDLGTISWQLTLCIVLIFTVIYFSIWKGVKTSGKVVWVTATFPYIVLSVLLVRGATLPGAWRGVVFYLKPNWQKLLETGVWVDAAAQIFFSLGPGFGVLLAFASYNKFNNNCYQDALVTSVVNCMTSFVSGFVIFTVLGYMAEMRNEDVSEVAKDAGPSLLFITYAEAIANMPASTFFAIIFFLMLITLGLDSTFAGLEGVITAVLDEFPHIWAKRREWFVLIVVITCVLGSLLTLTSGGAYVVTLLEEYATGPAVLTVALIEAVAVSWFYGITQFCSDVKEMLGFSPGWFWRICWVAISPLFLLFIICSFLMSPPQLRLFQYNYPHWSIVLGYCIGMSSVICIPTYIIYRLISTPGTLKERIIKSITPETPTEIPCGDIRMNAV
pIC50 here is simply -log10 of the concentration when that concentration is written in mol/L.

{"columns": ["COMPOUND", "TARGET", "pIC50"],
 "data": [
  ["Fc1ccc([C@@H]2CC3CCC(N3)[C@H]2COc2ccc3c(c2)OCO3)cc1 (stereo in doubt; 4d)", "Sodium-dependent serotonin transporter (Rattus norvegicus, UniProt P31652)", 6.37],
  ["Fc1ccc([C@H]2CC3CCC(N3)[C@H]2COc2ccc3c(c2)OCO3)cc1 (stereo in doubt; 4a)", "Sodium-dependent serotonin transporter (Rattus norvegicus, UniProt P31652)", 6.32],
  ["CN1C2CC[C@@H]1[C@@H](COc1ccc3c(c1)OCO3)[C@H](c1ccc(F)cc1)C2", "Sodium-dependent serotonin transporter (Rattus norvegicus, UniProt P31652)", 7.06]
]}

Now take the following compound into account.
Value of measured pIC50 for the entry Fc1ccc([C@H]2CC3CCC(N3)[C@@H]2COc2ccc3c(c2)OCO3)cc1 (stereo partly drawn) : 7.05
